- System: SLK
- conditions-used: concentration: 1 μM, replicates: in singlicate; n = 1;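 note: KINOMEscan kinase panel screen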
Response field class: enum, chosen by comparing %Inh against low = under 7%, middle = from 7% up to 20%, high = 20% and over

compound | target-or-test-system | label
COc1ccc(Nc2nccc(-c3ccc(NC(=O)c4cc5cc(F)ccc5[nH]4)cc3)n2)cc1 | SLK | low
CCc1ccc(-c2ccc3c(c2)-c2n[nH]cc2S(=O)(=O)N3C)cc1 | SLK | low
CNc1nc(-c2ccc3c(N)n[nH]c3c2)cc(N2C[C@@H](C(=O)NC3CCCCC3)OC[C@H]2C)n1 | SLK | high
CNc1nc(-c2ccc3c(N)n[nH]c3c2)cc(N2C[C@@H](C(=O)Nc3ccccc3)CC[C@H]2C)n1 | SLK | middle
NS(=O)(=O)c1cccc(N/C=C2\C(=O)Nc3ccc(S(=O)(=O)Cc4c(Cl)cccc4Cl)cc32)c1 | SLK | middle
CC(C)c1ccc(O)cc1Nc1ccnc2ccc(C(F)(F)F)cc12 | SLK | middle

Textbook exercise: identify the category of the compound given here, COc1ccc(Nc2nccc(N3CCC(NC(=O)c4cc5ccccc5s4)C3)n2)cc1 (centres unmarked) , according to its measured value. low

Textbook exercise: identify the category of the compound given here, `CC(=O)c1c(C)c2cnc(Nc3ccc(N4CCNCC4)cn3)nc2n(C2CCCC2)c1=O` , according to its measured value. low

Textbook exercise: identify the category of the compound given here, COC(=O)C(Cc1ccccc1)NC(=O)NC1CCN(c2ccnc(Nc3ccc(F)cc3)n2)C1 (centres unmarked) , according to its measured value. high

Textbook exercise: identify the category of the compound given here, `c1ccc(-c2ccnc3[nH]ccc23)cc1` , according to its measured value. low

Textbook exercise: identify the category of the compound given here, `O=c1cc(N2CCOCC2)nc2n(Cc3cccc(Cl)c3Cl)c3ccccc3n12` , according to its measured value. high

Textbook exercise: identify the category of the compound given here, `COc1ccc(Nc2nccc(NCCNC(=O)Nc3cc(C)ccc3C)n2)cc1` , according to its measured value. high

Textbook exercise: identify the category of the compound given here, `Cc1ccc(NC(=O)Nc2ccccc2F)cc1-c1ccc(C(=O)Nc2ccncc2)cc1` , according to its measured value. high

Textbook exercise: identify the category of the compound given here, `O=C(Nc1n[nH]c2nc(-c3cccs3)c(Br)cc12)C1CCCC1` , according to its measured value. high

###

- Tested on: TNNI3K
- conditions-used: concentration: 1 μM, replicates: in singlicate; n = 1
%Inh listing for selected compounds.
Field: numeric (%). Do not append units.

Sample records with %Inh:
compound | endpoint-unit | endpoint-result
Cn1cncc1C(=O)NC1CCN(c2ccnc(Nc3ccc(F)cc3)n2)C1 (centres unmarked) [GSK1379717] | % | 0
COc1cccc(CNC(=O)NC2CCN(c3ccnc(Nc4ccc(F)cc4)n3)C2)c1 (centres unmarked) [GSK1379723] | % | 4
COc1cccc(NC(=O)Nc2ccc(C)c(-c3ccc(C(=O)Nc4ccncc4)cc3)c2)c1 [GSK1398474] | % | 20
Cc1ccc(-c2nc(Nc3ccncc3)c3ccccc3n2)s1 [GSK189015] | % | 14
Cc1cccc2c(-c3ccncn3)c(-c3ccc(F)cc3)nn12 [GW515532] | % | 0
COc1ccc(-c2coc3ccc(-c4nnc(C)o4)cc23)cc1 | % | 0
NS(=O)(=O)c1cccc(N/C=C2\C(=O)Nc3ccc(S(=O)(=O)Cc4c(Cl)cccc4Cl)cc32)c1 [GSK398099] | % | 4

Consider the record given below.
Please give the measured %Inh for this compound: COc1cccc(C2=C(Nc3cc(Cl)c(O)c(Cl)c3)C(=O)NC2=O)c1 [SB-390767] 13
